- test-target: α2A adrenergic receptor (Homo sapiens, UniProt P08913)
- Construct: Eurofins Cerep (contract screening)
- Sequence (P08913 whole entry): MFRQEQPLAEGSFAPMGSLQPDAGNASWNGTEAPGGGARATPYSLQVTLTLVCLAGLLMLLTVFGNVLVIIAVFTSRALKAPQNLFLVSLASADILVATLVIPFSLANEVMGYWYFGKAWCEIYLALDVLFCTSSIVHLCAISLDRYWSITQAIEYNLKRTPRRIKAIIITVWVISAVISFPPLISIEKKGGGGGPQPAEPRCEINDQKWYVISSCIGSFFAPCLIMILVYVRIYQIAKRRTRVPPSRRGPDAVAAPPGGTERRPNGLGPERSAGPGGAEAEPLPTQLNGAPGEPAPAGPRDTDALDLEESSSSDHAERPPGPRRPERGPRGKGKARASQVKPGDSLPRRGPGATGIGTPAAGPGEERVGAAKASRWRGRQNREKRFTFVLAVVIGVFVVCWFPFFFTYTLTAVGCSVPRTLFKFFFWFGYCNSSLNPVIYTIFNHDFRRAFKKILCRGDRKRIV
- measurement-protocol: Radioligand binding assay (Eurofins Cerep), [3H]RX 821002 displacement
- recorded-conditions: Table 3-3; 3 independent experiments; read-out: Ki (nM ± SEM) a2A-AR
Record form. Attribute: Ki. Fill in for each entry.
Return type: number; implicit unit nM.

compound COC(=O)CC1CCN(CCc2cn(CC(F)(F)F)c3ccccc23)CC1 , Ki observed: 1940

Lab book: Ki of COC(=O)CC1CCN(CC(=O)N2CCc3c(OC)cccc32)CC1 noted as 6370

Entry COC(=O)CC1CCN(CCc2cn(CCc3c[nH]c4ccccc34)c3ccccc23)CC1 — recorded Ki = 7030

---

Field: Whole liver clearance, CL int, H. Provide a value for each of the compounds that follow.
- measurement-protocol: Metabolic stability in rat liver microsomes
- Assay type: in vitro ADME
- recorded-conditions: in vitro intrinsic clearance in RLM scaled to whole organ (rat)
Write the number in mL/min/kg without appending the unit.

Reported Whole liver clearance, CL int, H ( CC[C@@H]1CN2CCc3c([nH]c4cccc(OC)c34)[C@@H]2C[C@@H]1/C(=C\OC)C(=O)N(C)C [SUSM-501] ) = 128.8

# Whole liver clearance, CL int, H of CC[C@@H]1CN2CCc3c([nH]c4cccc(OC)c34)[C@@H]2C[C@@H]1/C(=C\OC)C(=O)NC1CCCC1 [SUSM-506] = 36.4

Form field Whole liver clearance, CL int, H, entry CC[C@@H]1CN2CCc3c([nH]c4cccc(OC)c34)[C@@H]2C[C@@H]1/C(=C\OC)C(=O)N1CCCC1 [SUSM-507] : 833.8

Whole liver clearance, CL int, H recorded for this compound, CCCNC(=O)/C(=C/OC)[C@H]1C[C@H]2c3[nH]c4cccc(OC)c4c3CCN2C[C@H]1CC [SUSM-27] , is 20.8

Lab book: Whole liver clearance, CL int, H of CC[C@@H]1CN2CCc3c([nH]c4cccc(OC)c34)[C@@H]2C[C@@H]1/C(=C\OC)C(=O)N(C)CC [SUSM-520] noted as 879.7

Recorded result, CCNC(=O)/C(=C/OC)[C@H]1C[C@H]2c3[nH]c4cccc(OC)c4c3CCN2C[C@H]1CC [SUSM-32] , Whole liver clearance, CL int, H: 11.4

Record CC[C@@H]1CN2CCc3c([nH]c4cccc(OC)c34)[C@@H]2C[C@@H]1/C(=C\OC)C(=O)OC [Mitragynine, mitragynine, reference compound] . Reported Whole liver clearance, CL int, H: 35.5

Entry CC[C@@H]1CN2CCc3c([nH]c4cccc(OC)c34)[C@@H]2C[C@@H]1/C(=C\OC)C(=O)NC [SUSM-25] — recorded Whole liver clearance, CL int, H = 8.9

Note to self: Whole liver clearance, CL int, H recorded for CC[C@@H]1CN2CCc3c([nH]c4cccc(OC)c34)[C@@H]2C[C@@H]1/C(=C\OC)C(=O)NC1CCCCC1 [SUSM-519] was 38.4

---

Exercise: state measured Ki for each of the compounds provided.
- test-target: α2C adrenergic receptor (Homo sapiens)
- Construct: Eurofins Cerep (contract screening)
- Sequence (P18825 whole entry): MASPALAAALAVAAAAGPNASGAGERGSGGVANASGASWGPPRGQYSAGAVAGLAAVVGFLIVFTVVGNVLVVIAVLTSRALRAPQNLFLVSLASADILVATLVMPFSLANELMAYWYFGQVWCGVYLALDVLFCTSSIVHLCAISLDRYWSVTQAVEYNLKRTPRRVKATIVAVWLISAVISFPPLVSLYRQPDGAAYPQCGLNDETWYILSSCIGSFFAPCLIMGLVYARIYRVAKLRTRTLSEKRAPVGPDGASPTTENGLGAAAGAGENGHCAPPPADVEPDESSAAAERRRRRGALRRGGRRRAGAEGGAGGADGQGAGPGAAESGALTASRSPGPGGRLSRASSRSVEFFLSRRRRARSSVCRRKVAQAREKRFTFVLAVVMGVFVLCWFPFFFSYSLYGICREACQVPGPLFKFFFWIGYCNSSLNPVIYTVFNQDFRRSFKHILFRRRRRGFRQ
- measurement-protocol: Radioligand binding assay (Eurofins Cerep), [3H]RX 821002 displacement
- recorded-conditions: Ki (nM ± SEM) a2C-AR, Table 3-6; 3 independent experiments

Lookup result for CO/C=C(/C(=O)OC)C1CCN(CCc2c[nH]c3ccccc23)CC1 ; measured Ki: 135 nM

The reported Ki of the compound COC(=O)CC1CCN(CCc2c[nH]c3cccc(OC)c23)CC1 was 69.3 nM

compound COC(=O)CC1CCN(CCc2c[nH]c3ccccc23)CC1 , Ki observed: > 10000 nM
